- System: Septoria nodorum
- Protocol notes: Test D: wheat glume blotch, preventive spray on wheat seedlings, visual disease rating
- Format: in vivo
- Particulars: 200 ppm, 100 = 100% disease control, 0 = no control
Reported property: Test D rating (% disease control) (%)
Entry rule: numbers only, all in %.

Sample answers from the record:
- Compound: "COc1cc(OC)cc(-c2c(C(C)C)cnc(C)c2-c2ccccc2)c1"
  Reported property: "Test D rating (% disease control)"
  Measure unit: "%"
  Endpoint value: 0
- Compound: "COc1cc(OC)cc(-c2c(C(C)=O)cnc(C)c2-c2c(F)cccc2F)c1"
  Reported property: "Test D rating (% disease control)"
  Measure unit: "%"
  Endpoint value: 0
- Compound: "COc1cc(OC)cc(-c2c(C(C)=O)cnc(C)c2-c2ccccc2F)c1"
  Reported property: "Test D rating (% disease control)"
  Measure unit: "%"
  Endpoint value: 0

input: Recorded Test D rating (% disease control) for COc1cc(OC)cc(-c2c(COc3ccccc3)cnc(C)c2-c2c(F)cc(F)cc2F)c1 with Septoria nodorum, please?
output: 0

input: Recorded Test D rating (% disease control) for CCc1ncc(C(C)=O)c(-c2cc(OC)cc(OC)c2)c1-c1ccccc1 with Septoria nodorum, please?
output: 0

input: Recorded Test D rating (% disease control) for CCOC(=O)c1cnc(C)c(-c2ccccc2)c1-c1cc(F)cc(F)c1 with Septoria nodorum, please?
output: 0

input: Recorded Test D rating (% disease control) for COc1cc(OC)cc(-c2c(C(O)C(C)C)cnc(C)c2-c2c(F)cc(F)cc2F)c1 (stereo not drawn) with Septoria nodorum, please?
output: 98

input: Recorded Test D rating (% disease control) for C=C(C)c1cnc(C)c(-c2c(F)cc(OC)cc2F)c1-c1cc(OC)cc(OC)c1 with Septoria nodorum, please?
output: 100

input: Recorded Test D rating (% disease control) for CCC(C)c1cnc(C)c(-c2ccc(F)cc2)c1-c1cc(OC)cc(OC)c1 (stereo not drawn) with Septoria nodorum, please?
output: 0

input: Recorded Test D rating (% disease control) for CCOC(=O)c1cnc(C)c(-c2ccccc2)c1-c1cc(OC)c(OC)c(OC)c1 with Septoria nodorum, please?
output: 0

input: Recorded Test D rating (% disease control) for COc1cc(OC)cc(-c2c(C(=O)N(C)C)cnc(C)c2-c2ccccc2)c1 with Septoria nodorum, please?
output: 0

input: Recorded Test D rating (% disease control) for CCOC(=O)c1cnc(C)c(-c2ccc(OC)cc2)c1-c1cc(OC)cc(OC)c1 with Septoria nodorum, please?
output: 0

----------
- Test system: Septoria nodorum
- Protocol notes: Test D: wheat glume blotch, preventive spray on wheat seedlings, visual disease rating
- Format: in vivo
- Particulars: 200 ppm, 100 = 100% disease control, 0 = no control
Recorded measurements of Test D rating (% disease control), one per entry
Entry rule: numbers only, all in %.

Sample answers from the record:
- Entry smiles: "COc1cc(OC)cc(-c2c(C(C)(C)O)c[n+]([O-])c(C)c2-c2ccccc2)c1"
  Endpoint value: 0
- Entry smiles: "COc1cc(OC)cc(-c2c(C(C)(C)O)cnc(C)c2-c2ccccc2F)c1"
  Endpoint value: 0
- Entry smiles: "CCOC(=O)c1cnc(CC)c(-c2ccccc2)c1-c1cc(OC)cc(OC)c1"
  Endpoint value: 0

input: For the compound COc1cc(OC)cc(-c2c(Cn3cccn3)cnc(C)c2-c2c(F)cc(F)cc2F)c1 , what Test D rating (% disease control) is on record?
output: 100

input: For the compound COc1cc(OC)cc(-c2c(-c3ccccc3F)cnc(C)c2-c2ccccc2)c1 , what Test D rating (% disease control) is on record?
output: 0

input: For the compound COc1cc(OC)cc(-c2c(-c3ccccc3F)cnc(C)c2-c2ccc(F)cc2)c1 , what Test D rating (% disease control) is on record?
output: 99

input: For the compound COc1cc(OC)cc(-c2c(C(C)(C)OC(C)=O)cnc(C)c2-c2c(F)cc(F)cc2F)c1 , what Test D rating (% disease control) is on record?
output: 0

----------
- Test system: Rhizoctonia oryzae
- Protocol notes: Test G: turf brown patch, preventive spray on creeping bent grass seedlings, visual disease rating
- Type: in vivo
- Particulars: 200 ppm, 100 = 100% disease control, 0 = no control
Recorded measurements of Test G rating (% disease control), one per entry
Entry rule: numbers only, all in %.

Sample answers from the record:
- Entry smiles: "CNC(=O)c1cnc(C)c(-c2ccccc2)c1-c1cc(OC)cc(OC)c1"
  Measure unit: "%"
  Endpoint value: 0
- Entry smiles: "COc1cc(OC)cc(-c2c(-c3ccccc3F)cnc(C)c2-c2ccc(F)cc2)c1"
  Measure unit: "%"
  Endpoint value: 99

input: For the compound COc1cc(OC)cc(-c2c(C(C)=O)cnc(C)c2-c2c(F)cccc2F)c1 , what Test G rating (% disease control) is on record?
output: 99

----------
- Test system: Alternaria solani
- Protocol notes: Test E: tomato early blight, preventive spray on tomato seedlings, visual disease rating
- Assay type: in vivo
- Particulars: 200 ppm, 100 = 100% disease control, 0 = no control
Recorded measurements of Test E rating (% disease control), one per entry

Sample answers from the record:
- Entry smiles: "Cc1ncc(-c2ccccc2F)c(-c2cc(O)cc(O)c2)c1-c1ccc(F)cc1"
  System tested: "Alternaria solani"
  Endpoint value: "0%"
- Entry smiles: "COc1cc(OC)cc(-c2c(COc3ccccc3)cnc(C)c2-c2c(F)cc(F)cc2F)c1"
  System tested: "Alternaria solani"
  Endpoint value: "0%"
- Entry smiles: "CCc1ncc(C(C)(C)O)c(-c2cc(OC)cc(OC)c2)c1-c1ccccc1"
  System tested: "Alternaria solani"
  Endpoint value: "93%"

input: Recorded Test E rating (% disease control) for COc1cc(OC)cc(-c2c(-c3ccc(F)cc3F)cnc(C)c2-c2ccc(F)cc2)c1 with Alternaria solani, please?
output: 87%

input: Recorded Test E rating (% disease control) for COc1cc(OC)cc(-c2c(CN3CCCCC3)cnc(C)c2-c2c(F)cc(F)cc2F)c1 with Alternaria solani, please?
output: 0%

input: Recorded Test E rating (% disease control) for C=C(C)c1cnc(C)c(-c2c(F)cc(OC)cc2F)c1-c1cc(OC)cc(OC)c1 with Alternaria solani, please?
output: 100%

----------
Recorded measurements of Test C rating (% disease control), one per entry
- System: Septoria tritici
- Protocol notes: Test C: wheat leaf blotch, preventive spray on wheat seedlings, visual disease rating
- Type: in vivo
- Particulars: 40 ppm (compound number followed by *)
Entry rule: numbers only, all in %.

Sample answers from the record:
- Molecule: "COc1cc(OC)c(Cl)c(-c2c(C(C)(C)O)cnc(C)c2-c2c(F)cc(F)cc2F)c1"
  Endpoint value: 98
- Molecule: "COc1cc(OC)cc(-c2c(C(C)CO)cnc(C)c2-c2c(F)cc(OC)cc2F)c1 (stereo not drawn)"
  Endpoint value: 96
- Molecule: "COc1cc(OC)cc(-c2c(Cn3cc(C#N)cn3)cnc(C)c2-c2c(F)cc(F)cc2F)c1"
  Endpoint value: 53
- Molecule: "COc1cc(OC)cc(-c2c(C3CCOCC3)cnc(C)c2-c2c(F)cc(F)cc2F)c1"
  Endpoint value: 93
- Molecule: "Cc1nc(C#N)c(C)c(-c2ccc(Cl)cc2)c1-c1c(F)cccc1F"
  Endpoint value: 100

input: Recorded Test C rating (% disease control) for COc1cc(OC)cc(-c2c(-c3ccccc3)c(C)[n+]([O-])c(C)c2-c2ccccc2F)c1 with Septoria tritici, please?
output: 97

input: Recorded Test C rating (% disease control) for COc1cc(OC)cc(-c2c(C(N)=O)cnc(C)c2-c2c(F)cc(F)cc2F)c1 with Septoria tritici, please?
output: 87

input: Recorded Test C rating (% disease control) for COc1cc(OC)c(Cl)c(-c2c(-c3ccccc3F)cnc(C)c2-c2c(F)cc(F)cc2F)c1Cl with Septoria tritici, please?
output: 40

input: Recorded Test C rating (% disease control) for COc1cc(OC)cc(-c2c(C(C)=NO)cnc(C)c2-c2c(F)cc(F)cc2F)c1 (single isomer, unassigned) [Compound 114] with Septoria tritici, please?
output: 99

----------
- Tested on: Puccinia recondite f. sp. tritici
- Protocol notes: Test B: wheat leaf rust, preventive spray on wheat seedlings, visual disease rating
- Format: in vivo
- Particulars: 200 ppm, 100 = 100% disease control, 0 = no control
Reported property: Test B rating (% disease control) (%)
Entry rule: numbers only, all in %.

Sample answers from the record:
- Molecule: "CCC(C)(O)c1cnc(C)c(-c2ccc(F)cc2)c1-c1cc(OC)cc(OC)c1 (stereo not drawn)"
  Test B rating (% disease control) / %: 98
- Molecule: "CCOC(=O)c1cnc(C)c(-c2ccccc2)c1-c1cc(OC)ccc1Cl"
  Test B rating (% disease control) / %: 74

Let us examine a further case.
input: For the molecule COc1ccc(-c2c(C)ncc(C(C)CO)c2-c2cc(OC)cc(OC)c2)cc1 (stereo not drawn) , what Test B rating (% disease control) is on record?
output: 98
